Biological target: T1, ECF37_2513
T1 chain: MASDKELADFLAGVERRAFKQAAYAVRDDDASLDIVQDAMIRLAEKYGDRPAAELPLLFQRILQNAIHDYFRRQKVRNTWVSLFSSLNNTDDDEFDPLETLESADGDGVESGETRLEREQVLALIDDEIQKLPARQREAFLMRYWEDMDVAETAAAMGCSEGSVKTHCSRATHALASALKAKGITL
Each item that follows carries a reported fold repression.
Please reply with the value in numeric form only.

// known answers, use as guide
binder	observation.type	reported.value
AS22_1147 (protein) MELDDIAVAWRSLEQRLDQHAALAGQVLGDLRSHAARAHLRPLWLSQSAQLLCAIALSGLVAHSWLAFPEQAAAIVGGVLLQIWCVALAASAARQLWLLSQLDFARPLLQTQRALAQLRRWRTRVAPWLGVAFWVLWVAVADAAWRALTGRSLPYAWLLCNLLVGVLGGIGTWLGYRRLQRSGHPWLERLDTVHAGRSVARTETLLEQIARFQRE	fold repression	3.66
AS33_375 (protein) MMALSKKMLEQEPSEIELLLPWHAAGTLNARDARRVEDALARDPELAKQYAAIRGEYEETIHLNESLGAPSARAMQKLFGAIDAEPARETGSLPLSARIATFFASLSPRTLAWSASLGAVALVLQAGIIGAVLMKTQPTTFQTASLSTSAPITRELGAAVAPARALVRFTPEARVADITALLDSYQASIIGDAKGGMFRLQFDKAMSQDELASLLGRMQREKFVNLAVAAP	fold repression	13.5

### Prompt Need fold repression, item AS01_3473 (protein) MSNYDNAELLALWLEGKLTPKQRDEFEQRCIQDSQFAEQVDAAAMVKIGADDYSSSEVPQWNKAATFEPQQANNSGSWLSGVSLVTSALAIVLVLTGTQVTTSEGELRIRFGSGQSEQALVKLVDSKLDAFKQNQQDAFTLYAQTLQQQQSESASQLTNYLLSSSRKERREDFAELIKFVNQQRSDDQLFYARQLNQLQQDVYHDATGVALESIQQ
### Response 1.38

### Prompt # repeat for AS15_436 (protein) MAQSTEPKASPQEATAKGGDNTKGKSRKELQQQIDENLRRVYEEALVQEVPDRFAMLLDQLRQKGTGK
### Response 5.1

### Prompt Proceed to AS30_35 (protein) MDKRLQQLREEYKNVQIPKELDIIVEKALQQEPKKKRIVMWPTSAAIAAAILFTALVNINPDAAQAMSKIPVIGKIVKAITFIEIKEEKDQSSIDVKTPALSGLSNKELENSINEKYLKESQQLYKEFIQSTSKNKKGHLSIYSDYETVTDTPDLLSIRRNIETTQASSYTQSRYITIDKKNDILLTLKSLFKDERYIKVISQNIKEQMKQQMKEDPNKIYWLTDEDAEPFKTILPDQTFYITEDHKLVISFDEYEVAPGYMGVTEFTIPTGVISNLLVGERYIR
### Response 2.3

### Prompt Further, for AS27_1331 (protein) MSAADKDPDKHSADADPPLTVELLADLQAGLLDDATAARIRSRVRSDPQAQQILRALNRVRRDVAAMGADPAWGPAARPAVVDSISAALRSARPNSSPGAAHAARPHVHPVRMIAGAAGLCAVATAIGVGAVVDAPPPAPSAPTTAQHITVSKPAPVIPLSRPQVLDLLHHTPDYGPPGGPLGDPSRRTSCLSGLGYPASTPVLGAQPIDIDARPAVLLVIPADTPDKLAVFAVAPHCSAADTGLLASTVVPRA ?
### Response 2.75

### Prompt Entry AS25_1643_cl43 (protein) MTTDSNFNDPCRRQFSRDLPQKMARHTNEATGAMDMVKRDRFELLSAYLGGEVTAAERRQVEDWPANDVAVQRLYSRLLKLRQGIRTMPIPTAQQSPETTAEQVFAKVNRRSRLAWKLGGAAVAACVIGAVTNWLPGRQTGIPQLAQQPQEQPTQAVTTPDALPMIALNNPVIEIPKAAVASPTKFIQPQPQLGEIPPDIN please
### Response 1.9
